# measured.target: CYP2C19 (Homo sapiens, UniProt P33261)
# Sequence (P33261 whole entry): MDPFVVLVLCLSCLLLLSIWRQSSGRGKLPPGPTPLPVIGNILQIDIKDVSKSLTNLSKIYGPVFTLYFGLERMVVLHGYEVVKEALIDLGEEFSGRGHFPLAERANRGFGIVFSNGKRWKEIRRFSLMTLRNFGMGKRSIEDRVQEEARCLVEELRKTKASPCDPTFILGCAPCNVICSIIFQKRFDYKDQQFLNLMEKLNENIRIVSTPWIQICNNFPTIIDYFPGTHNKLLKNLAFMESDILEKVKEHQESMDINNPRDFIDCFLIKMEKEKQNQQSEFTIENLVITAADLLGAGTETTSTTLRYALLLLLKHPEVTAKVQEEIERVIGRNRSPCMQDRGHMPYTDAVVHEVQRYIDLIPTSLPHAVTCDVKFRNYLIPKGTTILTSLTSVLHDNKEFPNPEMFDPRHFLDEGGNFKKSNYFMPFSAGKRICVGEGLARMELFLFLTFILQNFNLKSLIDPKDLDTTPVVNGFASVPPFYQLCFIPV
# assay: Inhibition of human recombinant CYP2C19 at 10 uM by spectrofluorimetry
# Format: ADME
measurement.type: inhibition at 10 µM (%)
Give the number; % is assumed, so skip it.

So the reported inhibition at 10 µM for `CCCCOC(=O)NS(=O)(=O)c1sc(CC(C)C)cc1-c1ccc(C(=O)c2nccn2C)cc1` , on CYP2C19 (Homo sapiens, UniProt P33261), turned out to be 6

So the reported inhibition at 10 µM for `CCCCOC(=O)NS(=O)(=O)c1sc(CC(C)C)cc1-c1ccc(CN2CCCC2=O)cc1` , on CYP2C19 (Homo sapiens, UniProt P33261), turned out to be 25

So the reported inhibition at 10 µM for `CCCCOC(=O)NS(=O)(=O)c1sc(CC(C)C)cc1-c1ccc(Cn2cccn2)cc1` , on CYP2C19 (Homo sapiens, UniProt P33261), turned out to be 12

So the reported inhibition at 10 µM for `CCCCOC(=O)NS(=O)(=O)c1sc(CC(C)C)cc1-c1ccc(Cn2ccnc2)cc1` , on CYP2C19 (Homo sapiens, UniProt P33261), turned out to be 67

###

# measured.target: Angiotensin type II receptor (Sus scrofa, UniProt Q2XUH7)
# Sequence (Q2XUH7 whole entry): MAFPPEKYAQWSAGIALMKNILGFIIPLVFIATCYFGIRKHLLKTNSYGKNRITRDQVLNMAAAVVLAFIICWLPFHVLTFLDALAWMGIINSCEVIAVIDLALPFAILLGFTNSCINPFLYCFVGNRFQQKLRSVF
Labelling: Ki reported below 20 nM becomes class 1; at or above becomes class 0.

Data request: Field: below-cutoff. Rule: recorded Ki strictly less than 20 nM. Subject: `CCCCOC(=O)NS(=O)(=O)c1sc(CC(C)C)cc1-c1ccc(C(=O)c2ccnn2C)cc1`
Data returned: class 1

Data request: Field: below-cutoff. Rule: recorded Ki strictly less than 20 nM. Subject: `CCCCOC(=O)NS(=O)(=O)c1sc(CC(C)C)cc1-c1ccc(CN2CCN(C)C2=O)cc1`
Data returned: class 1

Data request: Field: below-cutoff. Rule: recorded Ki strictly less than 20 nM. Subject: `CCCCOC(=O)NS(=O)(=O)c1sc(CC(C)C)cc1-c1ccc(Cc2nccs2)cc1`
Data returned: class 1

Data request: Field: below-cutoff. Rule: recorded Ki strictly less than 20 nM. Subject: `CCCCOC(=O)NS(=O)(=O)c1sc(CC(C)C)cc1-c1ccc(C(=O)c2ncco2)cc1`
Data returned: class 1

Data request: Field: below-cutoff. Rule: recorded Ki strictly less than 20 nM. Subject: `CCCCOC(=O)NS(=O)(=O)c1sc(CC(C)C)cc1-c1ccc(CN2CCOCC2)cc1`
Data returned: class 0

Data request: Field: below-cutoff. Rule: recorded Ki strictly less than 20 nM. Subject: `CCCCOC(=O)NS(=O)(=O)c1sc(CC(C)C)cc1-c1ccc(Cn2cnc(C(F)(F)F)c2)cc1`
Data returned: class 1

Data request: Field: below-cutoff. Rule: recorded Ki strictly less than 20 nM. Subject: `CCCCOC(=O)NS(=O)(=O)c1sc(CC(C)C)cc1-c1ccc(CN2C(=O)N(C)C(C)(C)C2=O)cc1`
Data returned: class 1

Data request: Field: below-cutoff. Rule: recorded Ki strictly less than 20 nM. Subject: `CCCCOC(=O)NS(=O)(=O)c1sc(CC(C)C)cc1-c1ccc(Cn2cnccc2=O)cc1`
Data returned: class 0

Data request: Field: below-cutoff. Rule: recorded Ki strictly less than 20 nM. Subject: `CCCCOC(=O)NS(=O)(=O)c1sc(CC(C)C)cc1-c1ccc(CN2C(=O)CCC2=O)cc1`
Data returned: class 0

Hello, the source for this data is ChEMBL document CHEMBL1165972, in case you need it.
